Tested On: OXA-48 (Klebsiella pneumoniae, UniProt Q6XEC0)
Construct: Genes encoding OXA-48 (residues 23–265) and VIM-2 (residues 27–266) were custom-synthesized; made in house
Sequence (Q6XEC0 23-265 limits assumed): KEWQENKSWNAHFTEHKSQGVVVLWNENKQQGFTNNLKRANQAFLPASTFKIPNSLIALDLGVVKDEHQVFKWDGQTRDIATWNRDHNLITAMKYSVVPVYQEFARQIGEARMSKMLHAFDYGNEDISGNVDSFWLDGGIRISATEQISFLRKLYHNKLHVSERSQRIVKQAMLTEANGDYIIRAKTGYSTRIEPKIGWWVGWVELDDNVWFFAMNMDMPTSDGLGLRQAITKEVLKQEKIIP
Assay Details: β-lactamase inhibition, nitrocefin hydrolysis
Assay type: biochemical
Property Name: IC50

Recall and state the measured IC50 for O=c1c(OCCN2CC2)c(-c2ccc(F)c(F)c2)oc2cc(O)cc(O)c12 .
> 100 µM

---

Tested On: NDM-1 (Klebsiella pneumoniae)
Construct: purchased RayBiotech, Inc. 230-00554
Assay Details: β-lactamase inhibition, imipenem hydrolysis
Type: biochemical
Property Name: IC50

Recall and state the measured IC50 for O=c1c(OCCN2CC2)c(-c2ccc(F)c(F)c2)oc2cc(O)cc(O)c12 [Compound 14] .
> 50 µM

---

System: MBL-producing P. aeruginosa clinical isolates
Assay Details: MIC by broth microdilution (CLSI)
Type: cell-based, Pseudomonas aeruginosa
Condition Label: Pseudomonas aeruginosa, PA-029, blaIMP
Experimental: The DMSO stock solutions of the test compounds were serially diluted to the desired concentrations in CAMHB. […] After the incubation of the plate at 37 °C for 24 h, bacterial growth was visibly evaluated by monitoring the turbidity of the resulting suspension, and the MICs were determined as the lowest concentrations of the test compounds that inhibited the visible growth of the bacteria.
Property Name: MIC

Compound	MIC
NCC[C@H](O)C(=O)N[C@@H]1C[C@H](N)[C@@H](O[C@H]2O[C@H](CN)[C@@H](O)[C@H](O)[C@H]2O)[C@H](O)[C@H]1O[C@H]1O[C@H](CO)[C@@H](O)[C@H](N)[C@H]1O [AMK, amikacin]	> 32 µg/mL

Give measured MIC for every item shown.
1. C[C@@H](O)[C@H]1C(=O)N2C(C(=O)O)=C(S[C@@H]3CN[C@H](C(=O)N(C)C)C3)[C@H](C)[C@H]12 [MEM, meropenem]
2. C[C@H]1[C@H](NC(=O)/C(=N\OC(C)(C)C(=O)O)c2csc(N)n2)C(=O)N1S(=O)(=O)O [ATM, aztreonam]

> 32 µg/mL
64 µg/mL

---

Assignment: determine reported IC50 for the given molecules.
Tested On: KPC-2 (Klebsiella pneumoniae)
Construct: purchased LifeSpan Biosciences, Inc. LS-G26598
Sequence (Q9F663 25-293, looked up): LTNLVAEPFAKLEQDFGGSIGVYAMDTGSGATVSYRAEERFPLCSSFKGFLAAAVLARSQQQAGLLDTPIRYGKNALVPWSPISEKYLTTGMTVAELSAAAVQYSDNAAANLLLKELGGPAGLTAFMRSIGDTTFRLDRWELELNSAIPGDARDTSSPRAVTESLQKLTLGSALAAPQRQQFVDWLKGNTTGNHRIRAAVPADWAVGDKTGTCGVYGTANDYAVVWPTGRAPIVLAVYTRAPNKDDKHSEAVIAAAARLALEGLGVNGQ
Assay Details: β-lactamase inhibition, nitrocefin hydrolysis
Type: biochemical
Condition Label: nitrocefin substrate; read-out: β-Lactamases, IC50 KPC-2
Answers are plain numbers, in µM.

In the examples that follow, each entry is paired with its recorded IC50.
Compound	Tested On	Units Label	IC50
CC(C)(C)CC(=O)Oc1c(-c2ccc(F)c(F)c2)oc2cc(O)cc(O)c2c1=O	KPC-2 (Klebsiella pneumoniae)	µM	22.2
CC(C)(C)C(=O)OCOc1c(-c2ccc(F)c(F)c2)oc2cc(O)cc(O)c2c1=O	KPC-2 (Klebsiella pneumoniae)	µM	33.2

Give measured IC50 for every item shown.
1. CC(C)(C)CCOc1c(-c2ccc(F)c(F)c2)oc2cc(O)cc(O)c2c1=O
2. O=c1c(OCC2CCCC2)c(-c2ccc(F)c(F)c2)oc2cc(O)cc(O)c12

[17.3, 40.8]

---

Tested on: MBL-producing P. aeruginosa clinical isolates
Assay Details: MIC by broth microdilution (CLSI)
Format: cell-based, Pseudomonas aeruginosa
Condition Label: Pseudomonas aeruginosa, PA-034, blaNDM
Property Name: MIC

In the examples that follow, each entry is paired with its recorded MIC.
Compound	MIC
CC(C)(O/N=C(\C(=O)N[C@@H]1C(=O)N2C(C(=O)[O-])=C(C[n+]3ccccc3)CS[C@H]12)c1csc(N)n1)C(=O)O [CAZ, ceftazidime]	> 16 µg/mL
CO/N=C(\C(=O)N[C@@H]1C(=O)N2C(C(=O)[O-])=C(C[N+]3(C)CCCC3)CS[C@H]12)c1csc(N)n1 [FEP, cefepime]	> 16 µg/mL
C[C@@H](O)[C@H]1C(=O)N2C(C(=O)O)=C(S[C@@H]3CN[C@H](C(=O)N(C)C)C3)[C@H](C)[C@H]12 [MEM, meropenem]	> 32 µg/mL
CNC(C)C1CCC(N)C(OC2C(N)CC(N)C(OC3OCC(C)(O)C(NC)C3O)C2O)O1 (stereo not shown) [GEN, gentamicin]	> 8 µg/mL
C[C@H]1[C@H](NC(=O)/C(=N\OC(C)(C)C(=O)O)c2csc(N)n2)C(=O)N1S(=O)(=O)O [ATM, aztreonam]	16 µg/mL
C[C@@H](O)[C@H]1C(=O)N2C(C(=O)O)=C(SCCN=CN)C[C@H]12 [IPM, imipenem]	> 8 µg/mL

Read the next record carefully.
Recall and state the measured MIC for NCC[C@H](O)C(=O)N[C@@H]1C[C@H](N)[C@@H](O[C@H]2O[C@H](CN)[C@@H](O)[C@H](O)[C@H]2O)[C@H](O)[C@H]1O[C@H]1O[C@H](CO)[C@@H](O)[C@H](N)[C@H]1O [AMK, amikacin] .
> 32 µg/mL

---

Tested On: VIM-2 (Escherichia coli, UniProt Q5U7L7)
Construct: Genes encoding OXA-48 (residues 23–265) and VIM-2 (residues 27–266) were custom-synthesized; made in house
Assay Details: β-lactamase inhibition, nitrocefin hydrolysis
Format: biochemical
Property Name: IC50

Recall and state the measured IC50 for O=c1c(OCCN2CC2)c(-c2ccc(F)c(F)c2)oc2cc(O)cc(O)c12 [Compound 14] .
> 100 µM

---

Test system: MBL-producing P. aeruginosa clinical isolates
Assay Details: MIC by broth microdilution (CLSI)
Type: cell-based, Pseudomonas aeruginosa
Condition Label: Pseudomonas aeruginosa, PA-012, blaNDM
Property Name: MIC

In the examples that follow, each entry is paired with its recorded MIC.
Compound	Result
C[C@@H](O)[C@H]1C(=O)N2C(C(=O)O)=C(SCCN=CN)C[C@H]12 [IPM, imipenem]	> 8 µg/mL
CO/N=C(\C(=O)N[C@@H]1C(=O)N2C(C(=O)[O-])=C(C[N+]3(C)CCCC3)CS[C@H]12)c1csc(N)n1 [FEP, cefepime]	> 16 µg/mL
CC(C)(O/N=C(\C(=O)N[C@@H]1C(=O)N2C(C(=O)[O-])=C(C[n+]3ccccc3)CS[C@H]12)c1csc(N)n1)C(=O)O [CAZ, ceftazidime]	> 16 µg/mL

Give measured MIC for every item shown.
1. C[C@H]1[C@H](NC(=O)/C(=N\OC(C)(C)C(=O)O)c2csc(N)n2)C(=O)N1S(=O)(=O)O [ATM, aztreonam]
2. CNC(C)C1CCC(N)C(OC2C(N)CC(N)C(OC3OCC(C)(O)C(NC)C3O)C2O)O1 (stereo not shown) [GEN, gentamicin]
3. NCC[C@H](O)C(=O)N[C@@H]1C[C@H](N)[C@@H](O[C@H]2O[C@H](CN)[C@@H](O)[C@H](O)[C@H]2O)[C@H](O)[C@H]1O[C@H]1O[C@H](CO)[C@@H](O)[C@H](N)[C@H]1O [AMK, amikacin]

16 µg/mL
8 µg/mL
≤ 4 µg/mL

Recall and state the measured MIC for C[C@@H](O)[C@H]1C(=O)N2C(C(=O)O)=C(S[C@@H]3CN[C@H](C(=O)N(C)C)C3)[C@H](C)[C@H]12 [MEM, meropenem] .
> 32 µg/mL

---

Tested On: NDM-1 (Klebsiella pneumoniae, UniProt C7C422)
Construct: purchased RayBiotech, Inc. 230-00554
Sequence (C7C422 29-270, looked up, species assumed): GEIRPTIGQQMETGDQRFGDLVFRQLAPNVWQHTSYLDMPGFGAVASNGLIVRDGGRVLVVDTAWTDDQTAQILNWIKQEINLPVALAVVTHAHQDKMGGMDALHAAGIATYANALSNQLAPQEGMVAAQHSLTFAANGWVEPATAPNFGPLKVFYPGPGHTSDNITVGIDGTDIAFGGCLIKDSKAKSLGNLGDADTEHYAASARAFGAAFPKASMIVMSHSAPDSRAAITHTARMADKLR
Assay Details: β-lactamase inhibition, imipenem hydrolysis
Assay type: biochemical
Condition Label: imipenem substrate; read-out: β-Lactamases, IC50 NDM-1
Experimental: Recombinant AmpC from Escherichia coli was produced according to a previously reported protocol. […] Genes encoding OXA-48 (residues 23–265) and VIM-2 (residues 27–266) were custom-synthesized (Bioneer Inc., Seoul, Republic of Korea) and expressed as previously described. The β-lactamase inhibitory activity of the title compounds was then determined according to the previously reported methods. […]
Property Name: IC50

Compound	IC50
CC(C)c1ccc(COc2c(-c3ccc(F)c(F)c3)oc3cc(O)cc(O)c3c2=O)cc1	16.7 µM
O=c1c(OCCC2CCOCC2)c(-c2ccc(F)c(F)c2)oc2cc(O)cc(O)c12	> 50 µM
O=c1c(OCCN2CCCC2)c(-c2ccc(F)c(F)c2)oc2cc(O)cc(O)c12	> 50 µM
O=c1c(OCCN2CCNCC2)c(-c2ccc(F)c(F)c2)oc2cc(O)cc(O)c12	> 50 µM
CN(C)CCOc1c(-c2ccc(F)c(F)c2)oc2cc(O)cc(O)c2c1=O	> 50 µM

Give measured IC50 for every item shown.
1. O=c1c(OCCN2CCCCC2)c(-c2ccc(F)c(F)c2)oc2cc(O)cc(O)c12
2. O=c1c(OCCC2CC2)c(-c2ccc(F)c(F)c2)oc2cc(O)cc(O)c12
3. O=c1c(OCC2CCCC2)c(-c2ccc(F)c(F)c2)oc2cc(O)cc(O)c12
4. O=c1c(OCCC(F)(F)F)c(-c2ccc(F)c(F)c2)oc2cc(O)cc(O)c12
5. CC(C)OC(=O)OCOc1c(-c2ccc(F)c(F)c2)oc2cc(O)cc(O)c2c1=O

1: > 50 µM; 2: 22.7 µM; 3: 21.8 µM; 4: > 50 µM; 5: > 50 µM

Give measured IC50 for every item shown.
1. CC(C)(C)c1ccc(COc2c(-c3ccc(F)c(F)c3)oc3cc(O)cc(O)c3c2=O)cc1
2. NCCOCCOc1c(-c2ccc(F)c(F)c2)oc2cc(O)cc(O)c2c1=O

14.1 µM
> 50 µM
